Assay: NCI Yeast Anticancer Drug Screen. Data for the cln2 rad14 strain (AID 165);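 also: 0% = growth equal to vehicle treated cultures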
Settings: S. cerevisiae cln2 rad14 strain, at 50.0 µM, hits give high values
The panel holds about 79,000 compounds, 15% with a hit somewhere; the sample as a whole holds those more often.
Each entry below lists one item and its recorded growth inhibition value.
Entry rule: numbers only, all in %.

MOLECULE: CC(C)(C#N)NC(=O)NC(C)(C)C(N)=O
growth inhibition (%): -50.2
--
MOLECULE: O=C1CCC2(CC1)SCCCS2
growth inhibition (%): 20.9
--
MOLECULE: OCCO
growth inhibition (%): -31.6
--
MOLECULE: O=P(Nc1ccc(Cl)cc1)(c1ccc(Cl)cc1)c1ccc(Cl)cc1
growth inhibition (%): -16.1
--
MOLECULE: COC(=O)CC1C2C=CN(C(=O)OC)N(C(=O)OC)C21 (stereo not drawn)
growth inhibition (%): 10.8
--
MOLECULE: CCCCC/C(=C\c1ccccc1)C1OCC(COC(C)=O)O1 (stereo not drawn)
growth inhibition (%): -30.2
--
MOLECULE: O=C1Nc2ccccc2C1O (stereo not drawn)
growth inhibition (%): -17.7
--
MOLECULE: CCCS(=O)(=O)N(CC)CC
growth inhibition (%): -27.5

Input: Quickly give me recorded growth inhibition for N=C(N)SCCSC(=N)N
Output: 9.7

Input: Please report the measured growth inhibition for Cc1ccc(S(=O)(=O)OC2C(OC(=O)c3ccccc3)OCC(O)C2O)cc1 (stereo not drawn)
Output: -11.8

Input: Answer with the recorded growth inhibition for the molecule listed here: CC(=N\N=C(N)N)/C(N=Nc1ccc(S(N)(=O)=O)cc1)=N\N=C(N)N
Output: -45.6

Input: Write down growth inhibition measured for item Nc1ccccc1NC(=O)c1nc2ccccc2[nH]1
Output: 6

Input: Query growth inhibition for CN=C1c2ccccc2C(=O)c2c1c(O)n(C)c2O
Output: 1.4

* * *

Test: NCI Yeast Anticancer Drug Screen. Data for the rad50 strain (AID 155);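 also: 0% = growth of vehicle-only cultures of the same strain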
Details: S. cerevisiae rad50 strain growth inhibition; at 50.0 µM; hits give high values
Compounds without any hit were thinned out: in the full panel of roughly 79,000, 15% have a hit. Activity calls are given as the source filed them. Cut-off read from the data, not from the text of the source: active = growth inhibition above about 70%; inactive = the rest.
MEASUREMENT NAME: growth inhibition

Some entries whose results are on file:
COMPOUND: COC1=CC(=O)c2ccc(C(C)C)cc2C1(C)C1=NC(C)(C)CO1 (stereo unspecified)
ENDPOINT RESULT: -1.55% (inactive)
//
COMPOUND: COC1CC(NC(=O)c2ccccc2)C(O)C(C)O1 (stereo unspecified)
ENDPOINT RESULT: 8.65% (inactive)
//
COMPOUND: C(=N/N=C(/C(=N/N=C/c1ccccc1)c1ccccc1)c1ccccc1)\c1ccccc1
ENDPOINT RESULT: 26.6% (inactive)
//
COMPOUND: O=S(=O)(OCC(F)(F)F)c1ccccc1
ENDPOINT RESULT: 16.4% (inactive)
//
COMPOUND: NC(=O)CNC(=O)[C@@H]1CC(OCCC(=O)O)CN1C(=O)C1CCCN1C(=O)OCc1ccccc1 (stereo partly specified)
ENDPOINT RESULT: 0.05% (inactive)

Input: Please look at this compound and report its growth inhibition: O=C1C2=C(c3ccccc31)C(c1ccccc1Cl)N1C(=O)CCSC1=N2 (stereo unspecified)
Output: 2.9% (inactive)

Input: Kindly indicate its recorded growth inhibition. Item: CCOC(=O)/C(Cc1ccc2c(c1)OCO2)=N\O
Output: -3.05% (inactive)

Input: # return recorded growth inhibition for input CC1=C(C(c2ccccc2)c2ccccc2)C(=O)c2ccccc2C1=O
Output: -3.35% (inactive)

Input: Answer with reported growth inhibition of CC(C)(C)CC(C)(C)NC(=O)CCl
Output: -6.05% (inactive)

Input: Please report growth inhibition for the following compound: COC(=O)C(C)CN1CCCCC1 (stereo unspecified)
Output: 20.1% (inactive)

Input: For the compound Cc1ccc(S(=O)(=O)NCc2cccc([N+](=O)[O-])c2)cc1 , report growth inhibition.
Output: 6.25% (inactive)

* * *

Experiment: NCI Yeast Anticancer Drug Screen. Data for the mlh1 rad18 strain (AID 175)
Details: S. cerevisiae mlh1 rad18 strain growth inhibition; at 50.0 µM; hits give high values
This is part of a sample that, as a whole, favours compounds with a hit. Of some 79,000 tested, about 15% had one in any assay.
MEASUREMENT NAME: growth inhibition (%)
Value expressed in %; do not type the unit.

Input: Give the reported growth inhibition for this molecule. Cc1nc(-c2ccccc2)ncc1C(O)CN(C)C (configuration not stated)
Output: -6.6

Input: Answer with the recorded growth inhibition for the molecule listed here: O=C(c1cccc(F)c1)c1ccccc1Cc1ccccc1
Output: -11.4

Input: Read the entry O=C(OCCO)c1ccc(O)c(O)c1 and write its reported growth inhibition.
Output: 7.55

Input: Return growth inhibition for the following molecule: CC(C)CC1NC(=O)OC1=O (configuration not stated)
Output: 0.35

Input: Look up growth inhibition of c1ccc(Cc2[nH]nc(-c3ccccc3)c2N=Nc2ccccc2)cc1 and report it.
Output: -6.1

Input: Answer with the recorded growth inhibition of Cc1ccccc1N=Nc1c(-c2ccccc2)nn(C(N)=S)c1-c1ccccc1 only.
Output: 19

* * *

Test: NCI Yeast Anticancer Drug Screen. Data for the sgs1 mgt1 strain (AID 161);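 also: 0% = growth of cultures given vehicle only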
Details: S. cerevisiae sgs1 mgt1 strain, at 50.0 µM
About 79,000 compounds went through this panel and 15% of them were active in at least one assay; those are over-represented in the sample as a whole. Activity calls are given as the source filed them. Rule as the data show it: active = growth inhibition above about 70%; inactive = the rest.
In this exercise, the only acceptable responses are true (active), false (inactive)

Below are worked cases with known answers.
COMPOUND: Cc1ccccc1CN(C)CCCO
ANSWER LABEL: false
--
COMPOUND: COc1cc(CN(c2ccccc2C(=O)O)S(=O)(=O)c2ccc(C)cc2)ccc1[N+](=O)[O-]
ANSWER LABEL: false
--
COMPOUND: CC(C)(C)OC(=O)Cc1ccc([N+](=O)[O-])cc1
ANSWER LABEL: false
--
COMPOUND: COc1ccc(C2C(Cl)C(=O)N2NC(=O)c2ccccc2O)cc1OC (stereo not given)
ANSWER LABEL: false
--
COMPOUND: CCOC(=O)C(=O)Nc1ccccc1C(C)C
ANSWER LABEL: false

Input: Recorded call for CCCCNC(=O)c1ccc(C(C)C)cc1 ?
Output: false

Input: Which outcome was entered for the compound C=CCC(OC(=O)C=C(C)C)c1ccc2c(c1)OCO2 (stereo not given) in this test?
Output: false

Input: Which result was noted for this compound in the test: N#CC(C#N)=CNc1ccccc1
Output: false

Input: So what was the verdict on CN(C)/C=C/c1ccnc2c1C(=O)c1ccccc1C2=O in this test?
Output: true

Input: Would you mind telling me which call this test gave CCOc1ccc(C(=O)OCCCl)cc1 ?
Output: false

* * *

Experiment: NCI Yeast Anticancer Drug Screen. Data for the cln2 rad14 strain (AID 165);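 also: 0% = growth equal to vehicle treated cultures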
Conditions: S. cerevisiae cln2 rad14 strain, at 50.0 µM, hits give high values
Experimental: Growth inhibition of yeast strains with defined genetic alterations is measured as a screen for potential anti-cancer activity. Selected strains with alterations in DNA damage repair or cell cycle control were exposed to compounds and growth inhibition was measured relative to vehicle treated controls. The strain used in this assay is cln2 rad14
About 79,000 compounds went through this panel and 15% of them were active in at least one assay; those are over-represented in the sample as a whole.
MEASUREMENT NAME: growth inhibition (%)
Provide only the numeric value, understood in %.

Input: Using known records, supply growth inhibition for CC(C)(C)NC(=O)c1cccc(C(=O)NC(C)(C)C)n1
Output: -7.9

Input: Hello, please tell me recorded growth inhibition for this one: O=C(O)c1ccc(S(=O)(=O)c2ccccc2[N+](=O)[O-])cc1
Output: -19

Input: State, in one line, measured growth inhibition of Nc1[nH]c(=S)[nH]c(=O)c1N=O
Output: -14.7

Input: Please indicate growth inhibition recorded for Cn1cc(C(C)(c2ccccc2)c2cn(C)c3ccccc23)c2ccccc21
Output: -24.2

Input: Report growth inhibition, nothing else, for this molecule: O=S(=O)(/N=C(Cl)/C(Cl)=N/S(=O)(=O)c1ccccc1)c1ccccc1
Output: -9.9

Input: Return value of growth inhibition for input CSc1ccc(C)c(/C=N/Nc2ccc([N+](=O)[O-])cc2[N+](=O)[O-])c1 , no commentary.
Output: -13.6

Input: Entry CN(C)C(=O)Nc1cccc2c(NC(=O)N(C)C)cccc12 needs its growth inhibition filled in; supply it.
Output: 11.9

Input: Input CN(C)Cc1ccccc1C=C(c1ccccc1)c1ccccc1 , output reported growth inhibition.
Output: -37.9

Input: Item O=C(Nc1ccc(S(=O)(=O)N2CCCCC2)cc1)OC1CCCCCC1 : provide growth inhibition
Output: 14.5

Input: Give growth inhibition for the following molecule: CCOC(=O)C(CC)C1=CCCCC1 (stereo not given)
Output: 12.3

Input: Give growth inhibition for COc1cc(N2C(=O)CSC2=S)cc(OC)c1OC
Output: 25.4

Input: Return reported growth inhibition. Input molecule: CC(=O)NC(C)CC1=CC(=O)C(C)=CC1=O (stereo not given)
Output: -33.7

Input: Specify reported growth inhibition for the molecule shown: Cc1ccccc1NC(=O)Nc1ccc(Nc2ccccc2)cc1
Output: -11.6

Input: Input CC(C)C1OC2(C)OC(=N)C1(C#N)C(C#N)(C#N)C2C (stereo not given) , output reported growth inhibition.
Output: -10.7

Input: Look up growth inhibition of CCCN1CCc2c([nH]c3cc(OC)ccc23)C1C (stereo not given) and report it.
Output: 1.9

Input: Give me measured growth inhibition, please, for this molecule: CCN(CC)C(=O)c1ccc(C)c(N=NN(C)C)c1
Output: -0.15

Input: Identify measured growth inhibition corresponding to C/C(CC(=O)Nc1cc(C)ccc1C)=N/N=C(N)N
Output: 17.8

Input: Please give the documented growth inhibition of O=C(O)c1ccccc1NC(=O)C1CCCCC1
Output: 0.85

Input: Check the records and state growth inhibition for O/N=C1\CCCCC1C(NO)c1ccccc1 (stereo not given)
Output: -16.4

Input: State, in one line, measured growth inhibition of C=C1CC(Cn2cc(C)c(=O)[nH]c2=O)(c2ccc(-c3ccccc3)cc2)OC1=O (stereo not given)
Output: 37.7

Attribution: PubChem BioAssay (NCI)
